Tested on: HEK-293T
procedureText: Multiplex assay against HEK293T
Assay type: toxicity, cell-based
conditionLabel: human, 48 h, 1 µM, compound concentration 1 uM, replicate 1
Measured Population Fragmented Nuclei (%), listed per entry for reference.
Your answer is read as %, so omit the unit and give the number.

{"columns": ["compound", "Population Fragmented Nuclei (%)"],
 "data": [
  ["CN1CCC(=C2c3ccccc3CC(=O)c3sccc32)CC1.O=C(O)/C=C/C(=O)O [KETOTIFEN FUMARATE]", 12]
]}

Query: Item under review: Cc1cc(C)c(S(=O)(=O)N(Cc2ccc(-c3cccc(S(C)(=O)=O)c3)cc2)Cc2ccc(C(F)(F)F)o2)c(C)c1 . Reported Population Fragmented Nuclei (%)?
Reply: 13

Query: Item under review: O=C(Cc1ccc(-c2ccc(OCCN3CCOCC3)cc2)cn1)NCc1ccccc1 . Reported Population Fragmented Nuclei (%)?
Reply: 25

Query: Item under review: CN1C2CCC1CC(OC(c1ccc(F)cc1)c1ccc(F)cc1)C2.Cl (centres undefined) . Reported Population Fragmented Nuclei (%)?
Reply: 20

###

Measured Population Membrane Permeable-Phenotype (%), listed per entry for reference.
System: U2OS
procedureText: Multiplex assay against U2OS
Format: toxicity, cell-based
conditionLabel: human, 48 h, 10 µM, compound concentration 10 uM, replicate 2
Express the reported value numerically, then name its unit.

Query: Item under review: O=C(Nc1ccc(-c2ccnc(Nc3ccc(N4CCOCC4)cc3)n2)cc1)[C@@H]1CCCN1 . Reported Population Membrane Permeable-Phenotype (%)?
Reply: 28%

Query: Item under review: CNc1cc(Oc2cc(C(=O)Nc3cc(N4CCN(C)CC4)cc(C(F)(F)F)c3)ccc2C)ncn1 . Reported Population Membrane Permeable-Phenotype (%)?
Reply: 89%

Query: Item under review: O=C(Nc1ccc(Cl)cc1)Nc1cccc(-c2cccc(N3CCCC3)n2)c1 . Reported Population Membrane Permeable-Phenotype (%)?
Reply: 40%

Query: Item under review: CCCn1c(=O)c2[nH]c(-c3cnn(Cc4cccc(C(F)(F)F)c4)c3)nc2n(CC)c1=O . Reported Population Membrane Permeable-Phenotype (%)?
Reply: 9%

Query: Item under review: C=C1/C(=C\C=C2/CCC[C@]3(C)[C@@H]([C@H](C)/C=C/[C@H](C)C(C)C)CC[C@@H]23)C[C@@H](O)C[C@@H]1O . Reported Population Membrane Permeable-Phenotype (%)?
Reply: 2%

Query: Item under review: Cl.O=C(c1ccc(Nc2nccc(-c3cc4ccccc4s3)n2)cc1)N1CCC(N2CCCC2)CC1 . Reported Population Membrane Permeable-Phenotype (%)?
Reply: 100%

Query: Item under review: CN1CCC(=C2c3ccccc3CC(=O)c3sccc32)CC1.O=C(O)/C=C/C(=O)O [KETOTIFEN FUMARATE] . Reported Population Membrane Permeable-Phenotype (%)?
Reply: 16%

Query: Item under review: CCn1c(=O)c(-c2ccc(-c3cncs3)cc2Cl)cc2cnc(Nc3ccc(N4CCN(C)CC4)cc3)nc21 . Reported Population Membrane Permeable-Phenotype (%)?
Reply: 16%

Query: Item under review: S=C(NCCCc1c[nH]cn1)NCCCN(Cc1ccc(Cl)c(Cl)c1)c1ccc(Br)cn1 . Reported Population Membrane Permeable-Phenotype (%)?
Reply: 92%

Query: Item under review: O=C(Cc1ccc(-c2ccc(OCCN3CCOCC3)cc2)cn1)NCc1ccccc1 . Reported Population Membrane Permeable-Phenotype (%)?
Reply: 44%

Query: Item under review: CCc1cccc(CC)c1NC(=O)c1nn(C)c2c1CCc1cnc(Nc3ccc(C(=O)NC4CCN(C)CC4)cc3OC(F)(F)F)nc1-2 . Reported Population Membrane Permeable-Phenotype (%)?
Reply: 35%

Query: Item under review: Cl.O=c1c2cccn2c2ccccc2n1CCCN1CCC(c2ccc(Cl)cc2)CC1 . Reported Population Membrane Permeable-Phenotype (%)?
Reply: 67%

Query: Item under review: Cc1cn(-c2cc(NC(=O)c3ccc(C)c(Nc4nccc(-c5cccnc5)n4)c3)cc(C(F)(F)F)c2)cn1 . Reported Population Membrane Permeable-Phenotype (%)?
Reply: 8%

Query: Item under review: Cl.Oc1ccc2c3c1O[C@H]1c4[nH]c5c(c4C[C@@]4(O)[C@@H](C2)N(CC2CC2)CC[C@]314)C[C@@]1(O)[C@H]2Cc3ccc(O)c4c3[C@@]1(CCN2CC1CC1)[C@H]5O4 . Reported Population Membrane Permeable-Phenotype (%)?
Reply: 30%

Query: Item under review: COc1cc(N2CCN(C)CC2)ccc1Nc1ncc2c(n1)N(C)c1ccccc1C(=O)N2C . Reported Population Membrane Permeable-Phenotype (%)?
Reply: 33%

Query: Item under review: CN1CCN(C(=O)C(C)(C)c2ccc(C(=O)Nc3cn4cc(-c5ccncc5)ccc4n3)cc2)CC1 . Reported Population Membrane Permeable-Phenotype (%)?
Reply: 63%

###

Measured Population Membrane Permeable-Phenotype (%), listed per entry for reference.
Tested on: HEK-293T
procedureText: Multiplex assay against HEK293T
Type: toxicity, cell-based
conditionLabel: human, 24 h, 10 µM, compound concentration 10 uM, replicate 2
Your answer is read as %, so omit the unit and give the number.

{"columns": ["compound", "uom", "reported"],
 "data": [
  ["CCn1cc(-c2ccnc3[nH]c(-c4cccc(CN(C)C)c4)cc23)c(-c2ccc(NC(=O)N(C)C)cc2)n1 [GSK-1070916]", "%", 18],
  ["COC(=N)c1nc2ccc3ncnc(Nc4ccc(OC)cc4F)c3c2s1", "%", 4]
]}

Query: For the record CCOc1cc2ncc(C#N)c(Nc3ccc(OCc4ccccn4)c(Cl)c3)c2cc1NC(=O)/C=C/CN(C)C [NERATINIB] , what value of Population Membrane Permeable-Phenotype (%) is listed for HEK-293T?
Reply: 0

Query: For the record CCCS(=O)(=O)c1nc(NC2CC2)cc(-c2ccc3c(ccn3C3CC(C)(C)NC(C)(C)C3)c2)n1 , what value of Population Membrane Permeable-Phenotype (%) is listed for HEK-293T?
Reply: 11

###

Test system: HEK-293T
procedureText: Multiplex assay against HEK293T
Type: toxicity, cell-based
conditionLabel: human, 24 h, 10 µM, compound concentration 10 uM, replicate 1
Measured Total Cell Count, listed per entry for reference.
Respond with the number and no other words.

Recorded results for 2 compounds are shown here.
{"columns": ["givenSmiles", "studyTarget", "Total Cell Count"],
 "data": [
  ["CCc1cccc(CC)c1NC(=O)c1nn(C)c2c1CCc1cnc(Nc3ccc(C(=O)NC4CCN(C)CC4)cc3OC(F)(F)F)nc1-2", "HEK-293T", 342],
  ["O=C1N/C(=N/c2ccccc2F)S/C1=C\\c1ccc(C(=O)O)cc1", "HEK-293T", 236]
]}

Now consider the entry below.
Query: Item under review: Cc1ccc(C(=O)Nc2cccc(C(F)(F)F)c2)cc1Nc1nc(-c2cccnc2)nc2c1cnn2C . Reported Total Cell Count?
Reply: 225

###

Measured Population Mitochondria Different-Phenotype (%), listed per entry for reference.
Test system: Fibroblast
procedureText: Multiplex assay against human fibroblast
Type: toxicity, cell-based
conditionLabel: 12 h, 10 µM, compound concentration 10 uM, replicate 1
Your answer is read as %, so omit the unit and give the number.

{"columns": ["givenSmiles", "uom", "reported"],
 "data": [
  ["CCn1cc(-c2ccnc3[nH]c(-c4cccc(CN(C)C)c4)cc23)c(-c2ccc(NC(=O)N(C)C)cc2)n1", "%", 2],
  ["O=C(Nc1ccc(Cl)cc1)Nc1cccc(-c2cccc(N3CCCC3)n2)c1", "%", 0],
  ["CCN1CCN(Cc2ccc(Nc3ncc(F)c(-c4cc(F)c5nc(C)n(C(C)C)c5c4)n3)nc2)CC1.CS(=O)(=O)O", "%", 5]
]}

Now consider the entry below.
Query: Item under review: COCC(=O)NC/C=C/c1ccc2ncnc(Nc3ccc(Oc4ccc(C)nc4)c(C)c3)c2c1 . Reported Population Mitochondria Different-Phenotype (%)?
Reply: 50

###

Test system: U2OS
procedureText: Incucyte cell viability with U2OS; further: filed as whole numbers so only -1 and 0 and 1 occur
Assay type: toxicity, cell-based
conditionLabel: human, 24 h, 10 µM, compound concentration 10 uM, replicate number 1, timepoint 24 hours
Measured Growth Rate, listed per entry for reference.

Recorded results for 5 compounds are shown here.
{"columns": ["compound", "Growth Rate"],
 "data": [
  ["Cc1ccc2nc(NCCN)c3ncc(C)n3c2c1.O=C(O)C(F)(F)F.O=C(O)C(F)(F)F", 0],
  ["Cc1ccc(-c2cnc([C@@]3(O)CC[C@H](C(=O)O)C(C)(C)C3)s2)cc1Nc1cccc(C(F)(F)F)n1", 0],
  ["Nc1cc(F)ccc1NC(=O)/C=C/c1cnn(C/C=C/c2ccccc2)c1", 0],
  ["COCC(=O)NC/C=C/c1ccc2ncnc(Nc3ccc(Oc4ccc(C)nc4)c(C)c3)c2c1", 1],
  ["CCc1cccc(CC)c1NC(=O)c1nn(C)c2c1CCc1cnc(Nc3ccc(N4CCN(C)CC4)cc3OC)nc1-2", 0]
]}

Query: Item under review: C[C@H]1Oc2cc(cnc2N)-c2c(nn(C)c2C#N)CN(C)C(=O)c2ccc(F)cc21 . Reported Growth Rate?
Reply: 1

Query: Item under review: CN([C@@H](Cc1ccc(OS(=O)(=O)c2cccc3cnccc23)cc1)C(=O)N1CCN(c2ccccc2)CC1)S(=O)(=O)c1cccc2cnccc12 . Reported Growth Rate?
Reply: 1

Query: Item under review: Cl.O=C(c1ccc(Nc2nccc(-c3cc4ccccc4s3)n2)cc1)N1CCC(N2CCCC2)CC1 . Reported Growth Rate?
Reply: 0

Query: Item under review: O=C(c1ccc(C(=O)N2CCC(N3CCCC3)CC2)c(Nc2ccccc2)c1)N1CCC(N2CCCC2)CC1 . Reported Growth Rate?
Reply: 1

Query: Item under review: COc1cc(-c2cn(C)c(=O)c3cnccc23)c(OC)cc1CN(C)C . Reported Growth Rate?
Reply: 1

Query: Item under review: CN(C)C(=O)c1cc2cnc(Nc3ccc(N4CCNCC4)cn3)nc2n1C1CCCC1 . Reported Growth Rate?
Reply: 0

Query: Item under review: Cl.Oc1ccc2c3c1O[C@H]1c4[nH]c5c(c4C[C@@]4(O)[C@@H](C2)N(CC2CC2)CC[C@]314)C[C@@]1(O)[C@H]2Cc3ccc(O)c4c3[C@@]1(CCN2CC1CC1)[C@H]5O4 . Reported Growth Rate?
Reply: 1

Query: Item under review: CN(C)[C@H]1CCN(c2cc(-c3ccccc3)nc3ccnn23)C1 [(S)-ZINC-3573] . Reported Growth Rate?
Reply: 0

Query: Item under review: CC(C)(Sc1ccc(CCN(CCCCC2CCCCC2)C(=O)NC2CCCCC2)cc1)C(=O)O . Reported Growth Rate?
Reply: 1

Query: Item under review: CC1(C)C(=O)C(C)(C)c2cc(C(=O)Nc3ccc(C(=O)O)cc3)ccc21 . Reported Growth Rate?
Reply: 1

Query: Item under review: Cn1nc(C(F)(F)F)cc1-c1cnc(N2CCc3cc(S(=O)(=O)Nc4c(F)cc(Cl)cc4F)cc(N4CCCC4=O)c32)nc1 . Reported Growth Rate?
Reply: 1
